Could you please report measured ALKALINE PHOSPHATASE for the items listed next?
Organism: Rattus norvegicus
PROTOCOL: DrugMatrix - Regimen: Daily Repeat
Format: toxicity, organism-based, Sprague-Dawley
Parameters: regimen Daily Repeat, gender Male, age 6-8 weeks
CONDITION_DESCRIPTION: in vivo, po, 0 mg/kg, 72 h, tissue Plasma, route oral GAVAGE, dose level Control, time 3 day, […]
Quick note: give the figure in u/L, leave out the unit.

For the molecule c1ccc2c(c1)Nc1ccccc1S2 , what ALKALINE PHOSPHATASE is on record? 430.5

Cool, now COc1ccccc1OCCNCC(O)COc1cccc2[nH]c3ccccc3c12 (stereo not drawn) 464.83

Cool, now Oc1ncnc2[nH]ncc12 332.5

Cool, now CC#C[C@]1(O)CC[C@H]2[C@@H]3CCC4=CC(=O)CCC4=C3[C@@H](c3ccc(N(C)C)cc3)C[C@@]21C 374.17

Cool, now CCOC(=O)C1=C(C)NC(C)=C(C(=O)OCC)C1c1ccccc1/C=C/C(=O)OC(C)(C)C 375

Cool, now COC(=O)Nc1nc2ccc(C(=O)c3ccccc3)cc2[nH]1 464.83

Cool, now CC(C)(c1ccc(O)cc1)c1ccc(O)cc1 317.17

Cool, now O=C(O)COC(=O)Cc1ccccc1Nc1c(Cl)cccc1Cl 464.83

Cool, now O=C(Nc1ccc(Cl)c(Cl)c1)c1cc(Cl)cc(Cl)c1O [3,3',4',5-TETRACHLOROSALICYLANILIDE] 462.5

Cool, now CO[C@H]1O[C@@H]2O[C@@]3(C)CC[C@H]4[C@H](C)CC[C@@H]([C@H]1C)[C@@]24OO3 393.83

Cool, now CS(=O)(=O)c1ccc(C2=C(c3ccccc3)C(=O)OC2)cc1 430.5

Cool, now Cc1cccc(C)c1NC(=O)C(C)N (stereo not drawn) [TOCAINIDE] 322.83

Cool, now CCC(C)(C)C(=O)O[C@H]1C[C@@H](C)C=C2C=C[C@H](C)[C@H](CC[C@@H]3C[C@@H](O)CC(=O)O3)[C@H]21 374.17

---

Could you please report measured CREATINE PHOSPHOKINASE for the items listed next?
Species: Rattus norvegicus
PROTOCOL: DrugMatrix - Regimen: Daily Repeat
Assay type: toxicity, organism-based, Sprague-Dawley
Set-up: regimen Daily Repeat, gender Male, age 6-8 weeks
CONDITION_DESCRIPTION: in vivo, po, 0 mg/kg, 72 h, tissue Plasma, route oral GAVAGE, dose level Control, time 3 day, […]
# output: number + unit

For the compound c1ccc2c(c1)Nc1ccccc1S2 , what CREATINE PHOSPHOKINASE is on record? 253.33 u/L

Cool, now O=C(O)COC(=O)Cc1ccccc1Nc1c(Cl)cccc1Cl 367.67 u/L

Cool, now CCC(C)(C)C(=O)O[C@H]1C[C@@H](C)C=C2C=C[C@H](C)[C@H](CC[C@@H]3C[C@@H](O)CC(=O)O3)[C@H]21 268.33 u/L

Cool, now CCOC(=O)C1=C(C)NC(C)=C(C(=O)OCC)C1c1ccccc1/C=C/C(=O)OC(C)(C)C 284.33 u/L

---

Organism: Rattus norvegicus
PROTOCOL: DrugMatrix - Regimen: Daily Repeat
Assay type: toxicity, organism-based, Sprague-Dawley
Design: regimen Daily Repeat, gender Male, age 6-8 weeks
CONDITION_DESCRIPTION: in vivo, po, 0 mg/kg, 120 h, tissue Plasma, route oral GAVAGE, dose level Control, time 5 day, […]
ENDPOINT: CHLORIDE (MEQ/L)
Quick note: give the figure in MEQ/L, leave out the unit.

For the compound O=C(O)COC(=O)Cc1ccccc1Nc1c(Cl)cccc1Cl , what CHLORIDE is on record? 100.33

Cool, now CCC(C)(C)C(=O)O[C@H]1C[C@@H](C)C=C2C=C[C@H](C)[C@H](CC[C@@H]3C[C@@H](O)CC(=O)O3)[C@H]21 97

Cool, now CCOC(=O)C1=C(C)NC(C)=C(C(=O)OCC)C1c1ccccc1/C=C/C(=O)OC(C)(C)C 98.67

Cool, now c1ccc2c(c1)Nc1ccccc1S2 98.5

Cool, now CS(=O)(=O)c1ccc(C2=C(c3ccccc3)C(=O)OC2)cc1 98.5

Cool, now CC(C)(c1ccc(O)cc1)c1ccc(O)cc1 98.5

Cool, now O=C(Nc1ccc(Cl)c(Cl)c1)c1cc(Cl)cc(Cl)c1O [3,3',4',5-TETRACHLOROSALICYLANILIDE] 100.33

---

Could you please report measured ALKALINE PHOSPHATASE for the items listed next?
Organism: Rattus norvegicus
PROTOCOL: DrugMatrix - Regimen: Daily Repeat
Format: toxicity, organism-based, Sprague-Dawley
Set-up: regimen Daily Repeat, gender Male, age 6-8 weeks
CONDITION_DESCRIPTION: in vivo, iv, 0 mg/kg, 72 h, tissue Plasma, dose level Control, time 3 day, vehicle 100 % SALINE
Quick note: give the figure in u/L, leave out the unit.

For the molecule Cc1c(N)nc([C@H](CC(N)=O)NC[C@H](N)C(N)=O)nc1C(=O)N[C@H](C(=O)N[C@H](C)[C@@H](O)[C@H](C)C(=O)N[C@H](C(=O)NCCc1nc(-c2nc(C(=O)NCCC[S+](C)C)cs2)cs1)[C@@H](C)O)[C@@H](O[C@@H]1O[C@@H](CO)[C@@H](O)[C@H](O)[C@@H]1O[C@H]1O[C@H](CO)[C@@H](O)[C@H](OC(N)=O)[C@@H]1O)c1c[nH]cn1.[Br-] , what ALKALINE PHOSPHATASE is on record? 374.67

Cool, now CC(=O)[C@]1(O)Cc2c(O)c3c(c(O)c2[C@@H](O[C@H]2C[C@H](N)[C@H](O)[C@H](C)O2)C1)C(=O)c1ccccc1C3=O 383.17

Cool, now COC(=O)C[C@](O)(CCC(C)(C)O)C(=O)O[C@@H]1C(OC)=C[C@]23CCCN2CCc2cc4c(cc2[C@H]13)OCO4 400.83

Cool, now CO[C@@]12[C@H](COC(N)=O)C3=C(C(=O)C(C)=C(N)C3=O)N1C[C@@H]1N[C@@H]12 339.83

---

Species on record: Rattus norvegicus
PROTOCOL: DrugMatrix - Regimen: Daily Repeat
Type: toxicity, organism-based, Sprague-Dawley
Set-up: regimen Daily Repeat, gender Male, age 6-8 weeks
CONDITION_DESCRIPTION: in vivo, iv, 0 mg/kg, 72 h, tissue Blood, dose level Control, time 3 day, vehicle 100 % SALINE
ENDPOINT: ABSOLUTE EOSINOPHIL (CELLS/uL)
Quick note: give the figure in CELLS/uL, leave out the unit.

For the compound Cc1c(N)nc([C@H](CC(N)=O)NC[C@H](N)C(N)=O)nc1C(=O)N[C@H](C(=O)N[C@H](C)[C@@H](O)[C@H](C)C(=O)N[C@H](C(=O)NCCc1nc(-c2nc(C(=O)NCCC[S+](C)C)cs2)cs1)[C@@H](C)O)[C@@H](O[C@@H]1O[C@@H](CO)[C@@H](O)[C@H](O)[C@@H]1O[C@H]1O[C@H](CO)[C@@H](O)[C@H](OC(N)=O)[C@@H]1O)c1c[nH]cn1.[Br-] [BLEOMYCIN A2] , what ABSOLUTE EOSINOPHIL is on record? 33.67

Cool, now CC(=O)[C@]1(O)Cc2c(O)c3c(c(O)c2[C@@H](O[C@H]2C[C@H](N)[C@H](O)[C@H](C)O2)C1)C(=O)c1ccccc1C3=O [IDARUBICIN] 247.67

Cool, now COC(=O)C[C@](O)(CCC(C)(C)O)C(=O)O[C@@H]1C(OC)=C[C@]23CCCN2CCc2cc4c(cc2[C@H]13)OCO4 [HARRINGTONINE] 15.33

Cool, now CO[C@@]12[C@H](COC(N)=O)C3=C(C(=O)C(C)=C(N)C3=O)N1C[C@@H]1N[C@@H]12 [MITOMYCIN] 0

---

Could you please report measured ABSOLUTE LYMPHOCYTE for the items listed next?
Organism: Rattus norvegicus
PROTOCOL: DrugMatrix - Regimen: Daily Repeat
Type: toxicity, organism-based, Sprague-Dawley
Design: regimen Daily Repeat, gender Male, age 6-8 weeks
CONDITION_DESCRIPTION: in vivo, iv, 0 mg/kg, 72 h, tissue Blood, dose level Control, time 3 day, vehicle 100 % SALINE
Quick note: give the figure in CELLS/uL, leave out the unit.

For the compound COC(=O)C[C@](O)(CCC(C)(C)O)C(=O)O[C@@H]1C(OC)=C[C@]23CCCN2CCc2cc4c(cc2[C@H]13)OCO4 [HARRINGTONINE] , what ABSOLUTE LYMPHOCYTE is on record? 9513.5

Cool, now CO[C@@]12[C@H](COC(N)=O)C3=C(C(=O)C(C)=C(N)C3=O)N1C[C@@H]1N[C@@H]12 [MITOMYCIN] 7026.17

Cool, now Cc1c(N)nc([C@H](CC(N)=O)NC[C@H](N)C(N)=O)nc1C(=O)N[C@H](C(=O)N[C@H](C)[C@@H](O)[C@H](C)C(=O)N[C@H](C(=O)NCCc1nc(-c2nc(C(=O)NCCC[S+](C)C)cs2)cs1)[C@@H](C)O)[C@@H](O[C@@H]1O[C@@H](CO)[C@@H](O)[C@H](O)[C@@H]1O[C@H]1O[C@H](CO)[C@@H](O)[C@H](OC(N)=O)[C@@H]1O)c1c[nH]cn1.[Br-] [BLEOMYCIN A2] 12123.5

Cool, now CC(=O)[C@]1(O)Cc2c(O)c3c(c(O)c2[C@@H](O[C@H]2C[C@H](N)[C@H](O)[C@H](C)O2)C1)C(=O)c1ccccc1C3=O [IDARUBICIN] 13190.83
